Kindly supply the reported Emax values for the records listed here.
target: human mGlu2 receptor (Homo sapiens, UniProt Q14416); construct: expressed in transfected cells; host or cells: CHO cells; experiment: [35S]GTPγS binding assay (mGluR2 negative allosteric modulation, glutamate ~EC80 60 μM); assay type: biochemical; details: maximal % inhibition relative to the control glutamate response (EC80 glutamate); read-out: GTPγS-hmGluR2 anGT Emax
Sequence (Q14416 19-872): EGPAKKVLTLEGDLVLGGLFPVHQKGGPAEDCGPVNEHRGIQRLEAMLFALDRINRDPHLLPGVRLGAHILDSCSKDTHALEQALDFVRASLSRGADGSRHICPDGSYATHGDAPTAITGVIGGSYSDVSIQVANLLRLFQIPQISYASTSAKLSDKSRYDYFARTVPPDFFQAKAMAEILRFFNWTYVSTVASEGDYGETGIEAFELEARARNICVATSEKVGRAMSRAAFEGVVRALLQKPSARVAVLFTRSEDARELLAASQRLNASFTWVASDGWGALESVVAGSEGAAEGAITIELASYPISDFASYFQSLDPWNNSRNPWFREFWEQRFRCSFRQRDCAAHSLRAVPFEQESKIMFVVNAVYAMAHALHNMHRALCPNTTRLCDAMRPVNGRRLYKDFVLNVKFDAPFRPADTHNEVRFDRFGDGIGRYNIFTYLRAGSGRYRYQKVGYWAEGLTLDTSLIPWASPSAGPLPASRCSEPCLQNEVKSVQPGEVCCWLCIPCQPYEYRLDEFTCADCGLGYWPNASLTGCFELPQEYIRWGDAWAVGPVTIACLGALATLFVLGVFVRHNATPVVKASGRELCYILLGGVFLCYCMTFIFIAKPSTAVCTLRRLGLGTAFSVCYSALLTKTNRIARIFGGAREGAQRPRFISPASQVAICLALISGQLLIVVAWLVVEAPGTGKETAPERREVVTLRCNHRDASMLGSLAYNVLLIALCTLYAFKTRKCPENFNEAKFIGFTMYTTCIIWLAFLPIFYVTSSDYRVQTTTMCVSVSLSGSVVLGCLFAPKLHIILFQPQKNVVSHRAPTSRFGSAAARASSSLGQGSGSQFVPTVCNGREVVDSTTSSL
Numbers only, in %.

{"record smiles": "C[C@H]1CN(c2ccc(C(F)(F)F)cc2)C(=O)c2c(NC(=O)c3ccc(F)cn3)cnn21", "system name": "human mGlu2 receptor (Homo sapiens, UniProt Q14416)", "unit info": "%", "result value": 108}

Each compound below has a recorded value; state its Emax.
1. Cc1cc(N2C[C@H](C)n3ncc(NC(=O)c4ccc(N)nc4)c3C2=O)ccc1C(F)(F)F
2. C[C@H]1CN(c2ccc(Cl)c(Cl)c2)C(=O)c2c(NC(=O)c3ccccn3)cnn21
3. C[C@H]1CN(c2ccc(C(F)(F)F)cc2)C(=O)c2c(NC(=O)c3cncc(F)n3)cnn21
4. C[C@H]1CN(c2ccc(C(F)(F)F)c(C#N)c2)C(=O)c2c(NC(=O)c3ccc(N)nc3)cnn21
5. C[C@H]1CN(c2ccc(C(F)(F)F)c(CF)c2)C(=O)c2c(NC(=O)c3cccnc3N)cnn21
6. C[C@H]1CN(c2ccc(C(F)(F)F)c(CF)c2)C(=O)c2c(NC(=O)c3ccc(N)nc3)cnn21
7. CNc1ncccc1C(=O)Nc1cnn2c1C(=O)N(c1ccc(C(F)(F)F)cc1)C[C@@H]2C

A.
1. 106
2. 109
3. 107
4. 106
5. 106
6. 107
7. 113
